target: Cholinesterase (Homo sapiens, UniProt P06276); assay: Inhibition of human BChE using butyrylthiocholine iodide as substrate incubated for 20 mins followed by substrate addition by Ellman's method; settings: read-out: IC50
Sequence (P06276 whole entry): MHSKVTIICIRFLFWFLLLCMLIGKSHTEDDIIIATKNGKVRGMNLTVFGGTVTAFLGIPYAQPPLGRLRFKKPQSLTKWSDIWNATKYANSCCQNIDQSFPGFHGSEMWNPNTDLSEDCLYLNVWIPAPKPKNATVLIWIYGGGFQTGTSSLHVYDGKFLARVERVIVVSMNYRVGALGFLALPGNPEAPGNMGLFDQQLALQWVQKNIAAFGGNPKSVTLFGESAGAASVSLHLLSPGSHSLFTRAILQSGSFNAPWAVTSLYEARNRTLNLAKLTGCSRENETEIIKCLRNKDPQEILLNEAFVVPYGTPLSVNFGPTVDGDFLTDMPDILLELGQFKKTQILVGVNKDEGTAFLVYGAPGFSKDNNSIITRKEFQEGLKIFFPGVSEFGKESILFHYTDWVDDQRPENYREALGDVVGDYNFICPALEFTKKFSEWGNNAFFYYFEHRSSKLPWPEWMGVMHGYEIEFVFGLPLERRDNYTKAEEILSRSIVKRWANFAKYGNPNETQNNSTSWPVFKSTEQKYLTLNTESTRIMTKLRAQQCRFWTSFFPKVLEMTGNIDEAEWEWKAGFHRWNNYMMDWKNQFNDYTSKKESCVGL
reported property: IC50 (nM)

# compound, study system, meas value
data = [
    ("COc1ccc2[nH]cc(CCNC(=O)CCNC(=O)Oc3ccc4c(c3)CN3CCc5ccccc5C3N4C)c2c1 (centres undefined)", "Cholinesterase (Homo sapiens, UniProt P06276)", 482),
    ("Cc1c(C)c2c(c(C)c1O)CCC(C)(C(=O)NCCCCNC(=O)Oc1ccc3c(c1)CN1CCc4ccccc4C1N3C)O2 (centres undefined)", "Cholinesterase (Homo sapiens, UniProt P06276)", 791),
    ("COc1ccc2[nH]cc(CCNC(=O)CCCCNC(=O)Oc3ccc4c(c3)CN3CCc5ccccc5C3N4C)c2c1 (centres undefined)", "Cholinesterase (Homo sapiens, UniProt P06276)", 127),
    ("COc1cc(/C=C/C(=O)NCCCCNC(=O)Oc2ccc3c(c2)CN2CCc4ccccc4C2N3C)ccc1O (centres undefined)", "Cholinesterase (Homo sapiens, UniProt P06276)", 155),
]

Measured values drawn from ChEMBL document CHEMBL5032507 for this set.
